- Test system: 743489-274-T-PDC complex spheroid growth
- Assay Text: Anticancer human tumor 743489-274-T-PDC patient-derived renal cell carcinoma cell line growth inhibition [AhR]
- Condition: second compound 10 µM; first compound 0.1 µM; active compounds read low
Readout Label: viability, T/C (%)
Number in %, nothing else.

{"columns": ["Compound", "Unit Symbol", "viability, T/C"],
 "data": [
  ["CC1(C)CCC(CN2CCN(c3ccc(C(=O)NS(=O)(=O)c4ccc(NCC5CCOCC5)c([N+](=O)[O-])c4)c(Oc4cnc5[nH]ccc5c4)c3)CC2)=C(c2ccc(Cl)cc2)C1 + Cc1cncc(-c2nc(NCCc3c[nH]c4ccccc34)c3ncn(C(C)C)c3n2)c1", "%", 111],
  ["CC(C)c1c(-c2ccccc2)nc2c(C#N)c[nH]n2c1=O + Cc1ccccc1N=Nc1ccc(NC(=O)c2ccnn2C)c(C)c1", "%", 99.2],
  ["CC1COCCN1c1cc(C2(S(C)(=N)=O)CC2)nc(-c2ccnc3[nH]ccc23)n1 (stereo unspecified) + Cc1ccccc1N=Nc1ccc(NC(=O)c2ccnn2C)c(C)c1", "%", 89.1],
  ["CC(C)c1c(-c2ccccc2)nc2c(C#N)c[nH]n2c1=O + CC(CO)NC(=O)c1cc(-c2ccc(Cl)cc2)nn(-c2cnn(C)c2)c1=O", "%", 101],
  ["Nc1ncn(C2CC(O)C(CO)O2)c(=O)n1 (stereo unspecified) + CC(CO)NC(=O)c1cc(-c2ccc(Cl)cc2)nn(-c2cnn(C)c2)c1=O", "%", 93.9],
  ["Nc1ccccc1NC(=O)c1ccc(CNC(=O)OCc2cccnc2)cc1 + CC(CO)NC(=O)c1cc(-c2ccc(Cl)cc2)nn(-c2cnn(C)c2)c1=O", "%", 87.3],
  ["Nc1ncn(C2CC(O)C(CO)O2)c(=O)n1 (stereo unspecified) + Cc1ccccc1N=Nc1ccc(NC(=O)c2ccnn2C)c(C)c1", "%", 96.2],
  ["COc1ccc([C@@H](O)c2cc(-c3ncnc4cc(N5CCOCC5)ccc34)c(F)cc2Cl)nn1 + CC(CO)NC(=O)c1cc(-c2ccc(Cl)cc2)nn(-c2cnn(C)c2)c1=O", "%", 92]
]}

Please look at CC1(C)CCC(CN2CCN(c3ccc(C(=O)NS(=O)(=O)c4ccc(NCC5CCOCC5)c([N+](=O)[O-])c4)c(Oc4cnc5[nH]ccc5c4)c3)CC2)=C(c2ccc(Cl)cc2)C1 + Cc1ccccc1N=Nc1ccc(NC(=O)c2ccnn2C)c(C)c1 and tell me its recorded viability, T/C on 743489-274-T-PDC complex spheroid growth.
85.2

Answer with viability, T/C of CC1COCCN1c1cc(-c2ccnn2C)c2ccnc(-c3ccn[nH]3)c2n1 (stereo unspecified) + Cc1cncc(-c2nc(NCCc3c[nH]c4ccccc34)c3ncn(C(C)C)c3n2)c1 measured for 743489-274-T-PDC complex spheroid growth.
142

Please tell me the measured viability, T/C for COc1ccc([C@@H](O)c2cc(-c3ncnc4cc(N5CCOCC5)ccc34)c(F)cc2Cl)nn1 + Cc1cncc(-c2nc(NCCc3c[nH]c4ccccc34)c3ncn(C(C)C)c3n2)c1 ; system: 743489-274-T-PDC complex spheroid growth.
119

----------
- Tested on: 743489-274-T-PDC complex spheroid growth
- Assay Text: Anticancer human tumor 743489-274-T-PDC cell line growth inhibition [AhR];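 also: spheroids exposed to agents for 7 days before readout; 100% = DMSO vehicle control wells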
- Condition: second compound 1 µM; first compound 0.949 µM; active compounds read low
Readout Label: viability, T/C (%)
Field: numeric (%). Do not append units.

{"columns": ["Compound", "Unit Symbol", "Measured Number"],
 "data": [
  ["O=C(C=Cn1cnc(-c2cc(C(F)(F)F)cc(C(F)(F)F)c2)n1)NNc1cnccn1 + Cc1cncc(-c2nc(NCCc3c[nH]c4ccccc34)c3ncn(C(C)C)c3n2)c1", "%", 108],
  ["O=C(C=Cn1cnc(-c2cc(C(F)(F)F)cc(C(F)(F)F)c2)n1)NNc1cnccn1 + CC(CO)NC(=O)c1cc(-c2ccc(Cl)cc2)nn(-c2cnn(C)c2)c1=O", "%", 116]
]}

Pending compound:
Read the entry CCN(c1cc(-c2ccc(CN3CCOCC3)cc2)cc(C(=O)NCc2c(C)cc(C)[nH]c2=O)c1C)C1CCOCC1 + CC(CO)NC(=O)c1cc(-c2ccc(Cl)cc2)nn(-c2cnn(C)c2)c1=O and write its reported viability, T/C.
94

----------
- System: 743489-274-T-PDC complex spheroid growth
- Assay Text: Anticancer human tumor 743489-274-T-PDC cell line growth inhibition [AhR];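 also: spheroids exposed to agents for 7 days before readout; 100% = DMSO vehicle control wells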
- Condition: second compound 0.1 µM; first compound 1 µM; active compounds read low
- Description: Multicellular complex tumor spheroid response to aryl hydrocarbon receptor antagonists in combination with a variety of drugs and investigational agents in selected tumor cell lines […] Compounds. […] If the clinical Cmax for an agent had not been determined, the highest concentration tested was 10 microM (Table 1). […]
Readout Label: viability, T/C (%)
Field: numeric (%). Do not append units.

{"columns": ["Compound", "Measured Number"],
 "data": [
  ["COc1cccc2c1C(=O)c1c(O)c3c(c(O)c1C2=O)CC(O)(C(=O)CO)CC3OC1CC(N)C(O)C(C)O1 (stereo unspecified) + Cc1cncc(-c2nc(NCCc3c[nH]c4ccccc34)c3ncn(C(C)C)c3n2)c1", 80.4],
  ["Nc1ccccc1NC(=O)c1ccc(CNC(=O)OCc2cccnc2)cc1 + CC(CO)NC(=O)c1cc(-c2ccc(Cl)cc2)nn(-c2cnn(C)c2)c1=O", 72.5],
  ["Nc1ccn(C2OC(CO)C(O)C2(F)F)c(=O)n1 (stereo unspecified) + Cc1cncc(-c2nc(NCCc3c[nH]c4ccccc34)c3ncn(C(C)C)c3n2)c1", 65.2]
]}

Consider the compound Nc1ccccc1NC(=O)c1ccc(CNC(=O)OCc2cccnc2)cc1 + Cc1cncc(-c2nc(NCCc3c[nH]c4ccccc34)c3ncn(C(C)C)c3n2)c1 tested on 743489-274-T-PDC complex spheroid growth; state its viability, T/C.
77.7

GET viability, T/C where system = 743489-274-T-PDC complex spheroid growth and item = O=C(c1cc(Cc2n[nH]c(=O)c3ccccc23)ccc1F)N1CCN(C(=O)C2CC2)CC1 + Cc1cncc(-c2nc(NCCc3c[nH]c4ccccc34)c3ncn(C(C)C)c3n2)c1
88.3

Look up and report measured viability, T/C (743489-274-T-PDC complex spheroid growth) for the following compound: COc1cc(Nc2ncc3c(n2)-c2ccc(Cl)cc2C(c2c(F)cccc2OC)=NC3)ccc1C(=O)O + Cc1cncc(-c2nc(NCCc3c[nH]c4ccccc34)c3ncn(C(C)C)c3n2)c1
99.8

----------
Recorded viability, T/C for the following compounds
- Test system: 743489-274-T-PDC complex spheroid growth
- Assay Text: Anticancer human tumor 743489-274-T-PDC cell line growth inhibition [AhR];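 also: spheroids exposed to agents for 7 days before readout; 100% = DMSO vehicle control wells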
- Condition: second compound 0.1 µM; first compound 0.0316 µM; active compounds read low
Note: unit % is implicit; provide only the numeric part.

Some compounds with recorded viability, T/C:
{"columns": ["Compound", "Readout Label", "Unit Symbol", "Measured Number"],
 "data": [
  ["COc1ccc([C@@H](O)c2cc(-c3ncnc4cc(N5CCOCC5)ccc34)c(F)cc2Cl)nn1 + Cc1ccccc1N=Nc1ccc(NC(=O)c2ccnn2C)c(C)c1", "viability, T/C", "%", 99.7],
  ["CC1(C)CCC(CN2CCN(c3ccc(C(=O)NS(=O)(=O)c4ccc(NCC5CCOCC5)c([N+](=O)[O-])c4)c(Oc4cnc5[nH]ccc5c4)c3)CC2)=C(c2ccc(Cl)cc2)C1 + Cc1cncc(-c2nc(NCCc3c[nH]c4ccccc34)c3ncn(C(C)C)c3n2)c1", "viability, T/C", "%", 103],
  ["CC1COCCN1c1cc(C2(S(C)(=N)=O)CC2)nc(-c2ccnc3[nH]ccc23)n1 (stereo not given) + Cc1cncc(-c2nc(NCCc3c[nH]c4ccccc34)c3ncn(C(C)C)c3n2)c1", "viability, T/C", "%", 104],
  ["CC(C)c1c(-c2ccccc2)nc2c(C#N)c[nH]n2c1=O + Cc1cncc(-c2nc(NCCc3c[nH]c4ccccc34)c3ncn(C(C)C)c3n2)c1", "viability, T/C", "%", 101]
]}

Enter measured viability, T/C, system 743489-274-T-PDC complex spheroid growth, for the compound shown: COc1cc(Nc2ncc3c(n2)-c2ccc(Cl)cc2C(c2c(F)cccc2OC)=NC3)ccc1C(=O)O + Cc1ccccc1N=Nc1ccc(NC(=O)c2ccnn2C)c(C)c1
93.3

----------
- Tested on: 743489-274-T-PDC complex spheroid growth
- Assay Text: Anticancer human tumor 743489-274-T-PDC cell line growth inhibition [AhR];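 also: spheroids exposed to agents for 7 days before readout; 100% = DMSO vehicle control wells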
- Condition: second compound 1 µM; first compound 0.316 µM; active compounds read low
Readout Label: viability, T/C (%)
Write the number in % without appending the unit.

{"columns": ["Compound", "Measured Number"],
 "data": [
  ["COc1cc(Nc2ncc3c(n2)-c2ccc(Cl)cc2C(c2c(F)cccc2OC)=NC3)ccc1C(=O)O + CC(CO)NC(=O)c1cc(-c2ccc(Cl)cc2)nn(-c2cnn(C)c2)c1=O", 95.5],
  ["NS(=O)(=O)OCC1CC(n2ccc3c(NC4CCc5ccccc54)ncnc32)CC1O (stereo unspecified) + CC(CO)NC(=O)c1cc(-c2ccc(Cl)cc2)nn(-c2cnn(C)c2)c1=O", 99.2],
  ["Nc1ccn(C2OC(CO)C(O)C2(F)F)c(=O)n1 (stereo unspecified) + Cc1cncc(-c2nc(NCCc3c[nH]c4ccccc34)c3ncn(C(C)C)c3n2)c1", 74.7]
]}

Look up and report measured viability, T/C for this entry: COc1cc(Nc2ncc3c(n2)-c2ccc(Cl)cc2C(c2c(F)cccc2OC)=NC3)ccc1C(=O)O + Cc1cncc(-c2nc(NCCc3c[nH]c4ccccc34)c3ncn(C(C)C)c3n2)c1
95.9

Dear colleague, please send me the reported viability, T/C for O=C(C=Cc1cccc(S(=O)(=O)Nc2ccccc2)c1)NO + CC(CO)NC(=O)c1cc(-c2ccc(Cl)cc2)nn(-c2cnn(C)c2)c1=O when you can.
84

Give the reported viability, T/C for this compound. Nc1ccccc1NC(=O)c1ccc(CNC(=O)OCc2cccnc2)cc1 + Cc1cncc(-c2nc(NCCc3c[nH]c4ccccc34)c3ncn(C(C)C)c3n2)c1
87.2
